target: CCR2 (Homo sapiens); construct: Membranes were prepared from THP-1 cells; endogenous in cells; host or cells: THP-1 (human acute monocytic leukaemia cells), membrane preparation; assay: CCR2 receptor membrane binding assay ([125I]MCP-1, THP-1 membranes, SPA beads); settings: dissociation constant hKi; THP-1 cell membranes, [125I]MCP-1, bound radioactivity after 8 h
Sequence (P41597 1-360 isoform P41597-2): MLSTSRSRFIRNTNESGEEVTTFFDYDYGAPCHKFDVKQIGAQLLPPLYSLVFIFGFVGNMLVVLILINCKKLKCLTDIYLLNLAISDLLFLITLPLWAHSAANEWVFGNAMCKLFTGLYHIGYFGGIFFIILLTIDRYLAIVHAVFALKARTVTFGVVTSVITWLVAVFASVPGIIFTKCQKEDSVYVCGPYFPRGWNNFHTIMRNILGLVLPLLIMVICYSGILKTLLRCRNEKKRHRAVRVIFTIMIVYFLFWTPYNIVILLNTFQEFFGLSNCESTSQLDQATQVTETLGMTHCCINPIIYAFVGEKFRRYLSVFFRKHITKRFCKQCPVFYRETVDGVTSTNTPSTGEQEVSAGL
outcome-measure: pKi
Value format note: pKi is -log10 of concentration (mol/L); just state the number.

INSERT INTO measurements (compound, outcome_measure, observed_measurement) VALUES
  ('CO[C@@H]1COCC[C@@H]1NC1CCN(C(=O)c2ncnc(NC[C@@H]3CCC[C@H](c4cccc(C)c4)O3)c2C)CC1 [Example 33]', 'pKi', 6.83),
  ('CO[C@@H]1COCC[C@@H]1NC1CCN(C(=O)c2ncnc(NC[C@H]3CCC[C@@H](c4cccc(C(F)(F)F)c4)O3)c2C)CC1 [Example 47]', 'pKi', 7.03),
  ('CO[C@@H]1COCC[C@@H]1NC1CCN(C(=O)c2ncnc(NC[C@H]3CCC[C@@H](c4ccc(C)cc4)O3)c2C)CC1 [Example 29]', 'pKi', 8.40),
  ('COc1nc(NC[C@H]2CCC[C@@H](c3ccc(C)cc3)O2)c(C)c(C(=O)N2CCC(N[C@@H]3CCOC[C@@H]3OC)CC2)n1 [Example 53z]', 'pKi', 8.52),
  ('CO[C@H]1COCC[C@H]1NC1CCN(C(=O)c2ncnc(NC[C@H]3CCC[C@@H](c4ccc(C(F)(F)F)cc4)O3)c2C)CC1 [Example 53]', 'pKi', 8.70);

[in] // lookup pKi for Cc1c(NC[C@@H]2CCC[C@H](c3ccc(C(C)(C)C#N)cc3)O2)ncnc1C(=O)N1CCC(N2CCC(N(C)S(C)(=O)=O)CC2)CC1 [Example 28f]
[out] 7.11

[in] // lookup pKi for CO[C@@H]1COCC[C@@H]1NC1CCN(C(=O)c2cc(NC[C@H]3CCC[C@@H](c4ccc(C)cc4)O3)nc(C(F)(F)F)n2)CC1 [Example 53i]
[out] 8.70

[in] // lookup pKi for Cc1c(NCC2CCCC(c3ccc(Cl)cc3)O2)ncnc1C(=O)N1CCC(N2CCC(N(C)S(C)(=O)=O)CC2)CC1 (stereo not shown) [Example 15]
[out] 7.62

[in] // lookup pKi for CO[C@@H]1COCC[C@@H]1NC1CCN(C(=O)c2cc(NC[C@H]3CCC[C@@H](c4ccc(OC(F)(F)F)cc4)O3)nc(C(F)(F)F)n2)CC1 [Example 53l]
[out] 9.30

[in] // lookup pKi for CO[C@@H]1COCC[C@@H]1NC1CCN(C(=O)c2cc(NC[C@H]3CCC[C@@H](c4ccc(C(F)(F)F)cc4)O3)nc(C(F)(F)F)n2)CC1 [Example 53t]
[out] 9.40

[in] // lookup pKi for Cc1c(NC[C@H]2CCC[C@@H](c3ccc(C(F)(F)F)cc3)O2)ncnc1C(=O)N1CCC(N2CCC(N(C)S(C)(=O)=O)CC2)CC1 [Example 24]
[out] 8.40

[in] // lookup pKi for COc1nc(NC[C@H]2CCC[C@@H](c3ccc(OC(F)(F)F)cc3)O2)c(C)c(C(=O)N2CCC(N[C@H]3CCOC[C@H]3OC)CC2)n1 [Example 53ae]
[out] 9.40

[in] // lookup pKi for COC1COCCC1NC1CCN(C(=O)c2ncnc(NC[C@@H]3CCC[C@H](c4ccc(C)c(F)c4)O3)c2C)CC1 (stereo partly shown) [Example 28c]
[out] 9.40

[in] // lookup pKi for Cc1c(NC[C@@H]2CCC[C@H](c3ccccc3)O2)ncnc1C(=O)N1CCC(N2CCC(N(C)S(C)(=O)=O)CC2)CC1 (single isomer, unassigned) [Example 12]
[out] 7.57

[in] // lookup pKi for Cc1ccc([C@@H]2CCC[C@H](CNc3ncnc(C(=O)N4CCC(NC5CCOCC5F)CC4)c3C)O2)cc1 (stereo partly shown) [Example 53v]
[out] 8.15

[in] // lookup pKi for CO[C@@H]1COCC[C@@H]1NC1CCN(C(=O)c2ncnc(NC[C@H]3CCC[C@@H](c4cccc(C)c4)O3)c2C)CC1 [Example 49]
[out] 8.40

[in] // lookup pKi for Cc1c(NC[C@H]2CCC[C@@H](c3ccc(C(F)(F)F)nc3)O2)ncnc1C(=O)N1CCC(N2CCC(N(C)S(C)(=O)=O)CC2)CC1 [Example 25]
[out] 6.38

[in] // lookup pKi for Cc1c(NC[C@H]2CCC[C@@H](c3ccc(C(F)(F)F)cc3)O2)ncnc1C(=O)N1CCC(NC2CCOCC2F)CC1 (stereo partly shown) [Example 53u]
[out] 8.52

[in] // lookup pKi for CO[C@H]1COCC[C@H]1NC1CCN(C(=O)c2ncnc(NC[C@@H]3CCC[C@H](c4ccc(C(F)(F)F)cc4)O3)c2C)CC1 [Example 36]
[out] 7.29

[in] // lookup pKi for CO[C@H]1COCC[C@H]1NC1CCN(C(=O)c2cc(NC[C@H]3CCC[C@@H](c4ccc(C)cc4)O3)nc(C(F)(F)F)n2)CC1 [Example 53h]
[out] 8.70
